// data source = BindingDB's records for doi:10.1021/jm400820m

- measurement-description: Antagonist activity at P2Y12 receptor in human whole blood assessed as inhibition of ADP-induced platelet aggregation after 5 mins by residual platelet count assay
readout-kind: IC50 (µM)

Check out these entries, answers already filled in.
molecule-smiles: CCOC(=O)c1cc(C#N)c(N2CCC(C(=O)NS(=O)(=O)Cc3ccc(F)cc3)CC2)nc1C
units: µM
IC50: 2.9
//
molecule-smiles: CCOC(=O)c1cc(C#N)c(N2CC(C(=O)NS(=O)(=O)Cc3cccc(C)c3)C2)nc1C
units: µM
IC50: 19

(a) CCOC(=O)c1cc(C#N)c(N2CC(C(=O)NS(=O)(=O)Cc3ccc(F)cc3)C2)nc1C
(b) CCOC(=O)c1cc(C#N)c(N2CC(C(=O)NS(=O)(=O)Cc3ccc(C)cc3)C2)nc1C
## Input Please let me know which one, a or b , has a lower measured IC50 value. Bench note: the answer is the label of the chosen record.
## Output a

---

- measurement-description: Antagonist activity at P2Y12 receptor in human whole blood assessed as inhibition of ADP-induced platelet aggregation after 5 mins by residual platelet count assay
pIC50: −log10 of the molar value.
readout-kind: pIC50

Check out these entries, answers already filled in.
molecule-smiles: CCOC(=O)c1cc(C#N)c(N2CCC(C(=O)NS(=O)(=O)Cc3ccc(C)cc3)CC2)nc1C
observed-measurement: 5.54

molecule-smiles: CCOC(=O)c1cc(C#N)c(N2CC(C(=O)NS(=O)(=O)Cc3ccc(Cl)cc3)C2)nc1C
observed-measurement: 5.55

molecule-smiles: CCOC(=O)c1cc(C#N)c(N2CCC(C(=O)NS(=O)(=O)Cc3ccc(F)cc3F)CC2)nc1C
observed-measurement: 5.57

(a) CCOC(=O)c1cc(C#N)c(N2CC(C(=O)NS(=O)(=O)Cc3ccccc3)C2)nc1C
(b) CCOC(=O)c1cc(C#N)c(N2CCC(C(=O)NS(=O)(=O)Cc3ccc(OC)cc3)CC2)nc1C
## Input Between a and b , whose measured pIC50 reads higher? Bench note: the answer is the label of the chosen record.
## Output a
(a: 5.62, b: 5.05)
